Collected log10 of IC50 values appear next to each entry.
target: EGFR wildtype, endogenous (A549) (Homo sapiens); construct: A549 (EGFR wildtype, endogenous); test: pEGFR Y1068 ELISA assay, A549 cells; details: inhibition of phosphorylation of EGFR at Tyr1068; A549 NSCLC cells; 2 hr compound incubation, then stimulated 10 min with EGF (40 ng/mL)
Sequence (P00533 25-1210): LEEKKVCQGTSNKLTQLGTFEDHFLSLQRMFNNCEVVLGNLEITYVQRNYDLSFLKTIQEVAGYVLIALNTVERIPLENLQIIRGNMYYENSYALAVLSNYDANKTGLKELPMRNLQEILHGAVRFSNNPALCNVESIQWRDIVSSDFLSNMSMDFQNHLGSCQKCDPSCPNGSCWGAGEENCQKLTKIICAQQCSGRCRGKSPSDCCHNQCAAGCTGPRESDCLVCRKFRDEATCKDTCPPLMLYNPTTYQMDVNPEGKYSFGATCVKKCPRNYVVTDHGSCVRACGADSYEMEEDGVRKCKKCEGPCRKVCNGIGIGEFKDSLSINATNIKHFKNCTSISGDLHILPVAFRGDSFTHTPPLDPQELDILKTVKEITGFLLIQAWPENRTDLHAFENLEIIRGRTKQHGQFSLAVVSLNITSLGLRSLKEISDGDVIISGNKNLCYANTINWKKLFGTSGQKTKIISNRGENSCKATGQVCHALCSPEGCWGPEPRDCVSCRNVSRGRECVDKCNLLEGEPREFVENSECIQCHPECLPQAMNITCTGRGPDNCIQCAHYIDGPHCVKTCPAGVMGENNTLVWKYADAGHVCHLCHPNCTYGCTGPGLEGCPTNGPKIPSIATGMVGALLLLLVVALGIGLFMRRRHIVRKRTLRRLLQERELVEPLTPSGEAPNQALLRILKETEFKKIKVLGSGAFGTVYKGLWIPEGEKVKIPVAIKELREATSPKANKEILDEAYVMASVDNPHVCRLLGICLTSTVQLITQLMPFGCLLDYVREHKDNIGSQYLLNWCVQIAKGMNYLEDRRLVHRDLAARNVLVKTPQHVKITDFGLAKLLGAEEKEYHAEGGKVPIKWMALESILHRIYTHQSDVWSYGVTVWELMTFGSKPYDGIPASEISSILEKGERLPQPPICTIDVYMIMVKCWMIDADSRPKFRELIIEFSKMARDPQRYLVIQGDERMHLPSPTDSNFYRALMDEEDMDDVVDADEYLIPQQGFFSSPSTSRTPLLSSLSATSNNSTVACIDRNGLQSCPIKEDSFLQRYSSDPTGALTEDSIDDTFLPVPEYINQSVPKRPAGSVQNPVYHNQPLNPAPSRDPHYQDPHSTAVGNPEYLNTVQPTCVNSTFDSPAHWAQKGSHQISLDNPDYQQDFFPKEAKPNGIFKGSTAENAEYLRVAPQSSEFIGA
valueKind: log10 of IC50 (log10 of the value in nM)

1) C=CC(=O)N[C@@H]1CN(c2nc(Nc3cn(CC(C)O)nc3OC)c3ncn(C)c3n2)C[C@H]1F (some centres unmarked) [Example 83]: 3.54
2) C=CC(=O)N[C@@H]1CN(c2nc(Nc3cn(C4CCN(C)C4)nc3C)c3ncn(C(C)C)c3n2)C[C@H]1F (some centres unmarked) [Example 65]: 3.10
3) C=CC(=O)N[C@@H]1CN(c2nc(Nc3cnn(C)c3)c3ncn(C(C)C)c3n2)C[C@@H]1OC (single isomer, unassigned) [Example 50]: 2.77
4) C=CC(=O)N[C@H]1CCN(c2nc(Nc3cnn(C)c3)c3ncn(C(C)C)c3n2)C1 [Example 4]: 2.81
5) C=CC(=O)N(C)C1CN(c2nc(Nc3ccc(N4CCN(C)CC4)cc3)c3ncn(C(C)C)c3n2)C1 [Example 24]: 3.06
6) C=CC(=O)N[C@@H]1CN(c2nc(Nc3cn(C)nc3C)c3ncn(CC)c3n2)C[C@H]1F [Example 76]: 2.60
7) C=CC(=O)N[C@H]1CCN(c2nc(Nc3ccc(N4CCN(C)CC4)cc3)c3ncn(CC)c3n2)C1 [Example 35]: 1.98
8) C=CC(=O)N1CCC(Oc2nc(Nc3cnn(C)c3)c3ncn(C(C)C)c3n2)C1 (stereo in doubt) [Example 59]: 3.61
9) C=CC(=O)N[C@H]1CCN(c2nc(Nc3cn(C)nc3C)c3ncn(C(C)C)c3n2)C1 [Example 37]: 3.88
10) C=CC(=O)N[C@@H]1CN(c2nc(Nc3cn(C4CN(C)C4)nc3OC)c3ncn(C)c3n2)C[C@H]1F [Example 5]: 2.74
11) C=CC(=O)N1C[C@@H](F)[C@H](Nc2nc(Nc3ccc(N4CCN(C)CC4)cc3)c3ncn(C(C)C)c3n2)C1 (relative stereo) [Example 19]: 2.29
12) C=CC(=O)N[C@H]1CCN(c2nc(Nc3ccc(N4CCN(C)CC4)cc3)c3ncn(C(C)(C)C)c3n2)C1 [Example 9]: 3.44
13) C=CC(=O)N1C[C@H](Nc2nc(Nc3cnn(C)c3)c3ncn(C(C)C)c3n2)[C@@H](F)C1 (relative stereo) [Example 58]: 2.99
14) C=CC(=O)N[C@H]1CCN(c2nc(Nc3ccc(N4CCN(C)CC4)cc3)c3ncn(C)c3n2)C1 [Example 38]: 2.41
15) C=CC(=O)NC1(C)CN(c2nc(Nc3cnn(CCN(C)C)c3)c3ncn(C(C)C)c3n2)C1 [Example 42]: 3.13
16) C=CC(=O)N1C[C@@H]2CN(c3nc(Nc4ccc(N5CCN(C)CC5)cc4)c4ncn(C(C)(C)C)c4n3)C[C@@H]2C1 [Example 18]: 3.66
17) C=CC(=O)N[C@@H]1CN(c2nc(Nc3cn(CC)nc3OC)c3ncn(C)c3n2)C[C@H]1F [Example 88]: 2.29
18) C=CC(=O)N[C@H]1CCN(c2nc(Nc3ccc(N4CCN(CC)CC4)cc3)c3ncn(C(C)C)c3n2)C1 [Example 40]: 1.87
19) C=CC(=O)NC1(C)CN(c2nc(Nc3ccc(N4CCN(C)CC4)cc3)c3ncn(C(C)C)c3n2)C1 [Example 12]: 2.15
20) C=CC(=O)NC1(C)CN(c2nc(Nc3cnn(C4CCN(C)CC4)c3)c3ncn(C(C)C)c3n2)C1 [Example 39]: 3.45
21) C=CC(=O)N1C[C@@H]2CN(c3nc(Nc4cnn(C)c4)c4ncn(CC)c4n3)C[C@@H]2C1 [Example 16]: 2.71
22) C=CC(=O)N[C@H]1CCN(c2nc(Nc3cnn([C@H]4CCN(C)C4)c3)c3ncn(C(C)C)c3n2)C1 [Example 69]: 2.85
23) C=CC(=O)N[C@@H]1CN(c2nc(Nc3cn(C4CCN(C)C4)nc3C)c3ncn(CC)c3n2)C[C@H]1F (some centres unmarked) [Example 80]: 2.63
24) C=CC(=O)N[C@@H]1CN(c2nc(Nc3cnn(C)c3)c3ncn(C(C)C)c3n2)CC1(F)F [Example 74]: 1.69
25) C=CC(=O)N(C)C1CN(c2nc(Nc3cnn(C)c3)c3ncn(C(C)C)c3n2)C1 [Example 31]: 3.13
26) C=CC(=O)N[C@@H]1CN(c2nc(Nc3cnn(CCN(C)C)c3)c3ncn(C(C)(C)C)c3n2)C[C@H]1F [Example 68]: 2.85
27) C=CC(=O)Nc1cccc(Oc2nc(Nc3ccc(N4CCN(C)CC4)cc3)c3ncn(C(C)C)c3n2)c1 [Example 22]: 1.59

----------
molecular target: EGFR wildtype, endogenous (A549) (Homo sapiens); construct: A549 (EGFR wildtype, endogenous); experiment: pEGFR Y1068 ELISA assay, A549 cells; conditions: inhibition of phosphorylation of EGFR at Tyr1068; A549 NSCLC cells; 2 hr compound incubation, then stimulated 10 min with EGF (40 ng/mL)
valueKind: log10 of IC50 (log10 of the value in nM)

1) C=CC(=O)N[C@H]1CCN(c2nc(Nc3ccc(N4CCN(C)CC4)cc3)c3ncn(CCO)c3n2)C1: 3.62
2) C=CC(=O)N1C[C@@H]2CN(c3nc(Nc4ccc(N5CCN(C)CC5)cc4)c4ncn(C(C)C)c4n3)C[C@@H]2C1: 2.26
3) C=CC(=O)N[C@@H]1CN(c2nc(Nc3cnn(C4CCN(C)CC4)c3)c3ncn(C(C)(C)C)c3n2)C[C@H]1F: 2.78
4) C=CC(=O)N[C@@H]1CN(c2nc(Nc3cnn(C4CCN(C)CC4)c3)c3ncn(C(C)C)c3n2)C[C@H]1F: 2.22
5) C=CC(=O)N[C@H]1CN(c2nc(Nc3cnn(CCN(C)C)c3)c3ncn(C(C)C)c3n2)C[C@@H]1F: 1.95
6) C=CC(=O)N(C)[C@H]1C[C@H](Oc2nc(Nc3ccc(N4CCN(C)CC4)cc3)c3ncn(C(C)C)c3n2)C1: 2.84
7) C=CC(=O)N1CCC[C@@H](Oc2nc(Nc3cnn(C)c3)c3ncn(C(C)C)c3n2)C1: 3.48

----------
target: EGFR del/T790M (PC9-DRH) (Homo sapiens, UniProt P00533, DEL746-750/T790M); construct: detects endogenous levels of phospho-EGF Receptor (Tyr1068) protein; endogenous in cells; assay: pEGFR Y1068 ELISA assay, PC9-DRH cells; conditions: inhibition of phosphorylation of EGFR at Tyr1068; PC9-DRH cells (dacomitinib resistant); 2 hr compound incubation
Sequence (P00533 with tags, fused parts or gaps DEL746-750/T790M): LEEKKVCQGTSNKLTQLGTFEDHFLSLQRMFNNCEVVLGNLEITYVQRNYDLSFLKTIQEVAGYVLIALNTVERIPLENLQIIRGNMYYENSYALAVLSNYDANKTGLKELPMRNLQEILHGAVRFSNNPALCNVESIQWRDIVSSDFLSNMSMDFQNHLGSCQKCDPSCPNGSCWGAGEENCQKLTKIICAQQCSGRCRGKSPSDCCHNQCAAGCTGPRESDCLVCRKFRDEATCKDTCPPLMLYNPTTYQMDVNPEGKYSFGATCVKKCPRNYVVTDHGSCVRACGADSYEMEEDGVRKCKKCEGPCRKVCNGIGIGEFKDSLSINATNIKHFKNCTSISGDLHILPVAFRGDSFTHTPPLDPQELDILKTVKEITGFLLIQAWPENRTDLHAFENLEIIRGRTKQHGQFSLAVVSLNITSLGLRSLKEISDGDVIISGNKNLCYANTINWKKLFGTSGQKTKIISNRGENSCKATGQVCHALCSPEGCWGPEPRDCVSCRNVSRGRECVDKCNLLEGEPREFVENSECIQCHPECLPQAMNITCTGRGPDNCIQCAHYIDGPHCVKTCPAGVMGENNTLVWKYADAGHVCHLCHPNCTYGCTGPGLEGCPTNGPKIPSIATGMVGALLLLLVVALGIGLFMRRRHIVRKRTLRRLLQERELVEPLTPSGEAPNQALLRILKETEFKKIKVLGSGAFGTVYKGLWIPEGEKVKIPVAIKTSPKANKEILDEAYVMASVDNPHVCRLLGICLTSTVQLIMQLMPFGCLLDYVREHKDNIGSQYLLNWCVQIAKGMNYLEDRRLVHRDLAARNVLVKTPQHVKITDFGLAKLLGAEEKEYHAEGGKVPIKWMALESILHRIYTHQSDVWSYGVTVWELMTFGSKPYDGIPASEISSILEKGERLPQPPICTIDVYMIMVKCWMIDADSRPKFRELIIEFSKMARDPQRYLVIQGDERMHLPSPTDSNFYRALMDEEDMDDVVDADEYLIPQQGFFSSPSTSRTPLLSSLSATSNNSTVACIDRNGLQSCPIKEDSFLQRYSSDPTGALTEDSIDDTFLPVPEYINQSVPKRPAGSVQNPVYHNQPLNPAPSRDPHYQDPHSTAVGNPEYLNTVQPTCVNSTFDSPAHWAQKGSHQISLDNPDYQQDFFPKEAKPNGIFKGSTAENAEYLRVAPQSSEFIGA
pIC50: −log10 of the molar value.
valueKind: pIC50

1) C=CC(=O)N[C@@H]1CN(c2nc(Nc3cnn(C)c3)c3ncn(C(C)(C)C)c3n2)CC1F (stereo in doubt): 8.70
2) C=CC(=O)N[C@H]1CCN(c2nc(Nc3ccc(N4CCN(CC)CC4)cc3)c3ncn(C(C)C)c3n2)C1: 8.30
3) C=CC(=O)N1C[C@H]2CN(c3nc(Nc4ccc(N5CCN(C)CC5)cc4)c4ncn(C(C)C)c4n3)C[C@]2(OC)C1 (single isomer, unassigned): 8.10

----------
molecular target: EGFR L858R+T790M, endogenous (NCI-H1975) (Homo sapiens, UniProt P00533, L858R/T790M); construct: NCI-H1975 (EGFR L858R+T790M, endogenous); test: pEGFR Y1068 ELISA assay, NCI-H1975 cells; details: inhibition of phosphorylation of EGFR at Tyr1068; NCI-H1975 NSCLC cells; 2 hr compound incubation
Sequence (P00533 25-1210 T790M/L858R): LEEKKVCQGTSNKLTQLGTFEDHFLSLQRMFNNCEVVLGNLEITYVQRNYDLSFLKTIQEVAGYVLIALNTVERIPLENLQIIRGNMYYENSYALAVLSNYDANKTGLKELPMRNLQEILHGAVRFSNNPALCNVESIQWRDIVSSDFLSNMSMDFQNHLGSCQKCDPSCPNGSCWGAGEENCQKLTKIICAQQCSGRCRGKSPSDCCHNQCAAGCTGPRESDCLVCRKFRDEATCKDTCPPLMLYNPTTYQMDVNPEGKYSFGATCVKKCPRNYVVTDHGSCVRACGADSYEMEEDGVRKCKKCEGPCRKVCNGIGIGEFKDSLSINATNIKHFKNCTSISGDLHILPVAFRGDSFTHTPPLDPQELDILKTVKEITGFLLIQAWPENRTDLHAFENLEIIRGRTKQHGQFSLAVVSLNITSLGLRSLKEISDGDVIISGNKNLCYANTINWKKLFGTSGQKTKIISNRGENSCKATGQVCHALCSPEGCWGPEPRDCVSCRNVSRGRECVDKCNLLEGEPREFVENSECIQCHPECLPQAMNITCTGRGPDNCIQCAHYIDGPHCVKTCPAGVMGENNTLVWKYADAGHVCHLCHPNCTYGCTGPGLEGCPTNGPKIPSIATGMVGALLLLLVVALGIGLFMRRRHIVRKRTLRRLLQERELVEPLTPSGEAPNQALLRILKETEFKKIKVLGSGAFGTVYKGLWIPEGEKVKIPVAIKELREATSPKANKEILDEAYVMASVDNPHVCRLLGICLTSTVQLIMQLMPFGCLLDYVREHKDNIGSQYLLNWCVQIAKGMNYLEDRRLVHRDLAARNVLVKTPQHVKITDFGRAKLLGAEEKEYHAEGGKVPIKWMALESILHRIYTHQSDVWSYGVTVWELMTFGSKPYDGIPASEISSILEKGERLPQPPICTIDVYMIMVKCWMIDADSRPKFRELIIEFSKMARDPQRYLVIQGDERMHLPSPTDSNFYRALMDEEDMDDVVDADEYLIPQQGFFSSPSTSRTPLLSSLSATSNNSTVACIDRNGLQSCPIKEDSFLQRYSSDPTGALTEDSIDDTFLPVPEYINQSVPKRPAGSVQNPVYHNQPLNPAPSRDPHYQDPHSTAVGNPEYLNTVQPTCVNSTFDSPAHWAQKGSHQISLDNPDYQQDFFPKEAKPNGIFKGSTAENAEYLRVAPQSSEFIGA
Collected IC50 values appear next to each entry.
valueKind: IC50 (µM)

1. C=CC(=O)N[C@H]1CCN(c2nc(Nc3cnn(C4CCN(C)CC4)c3)c3ncn(C(C)C)c3n2)C1 [Example 41]: 0.064
2. C=CC(=O)N[C@@H]1CN(c2nc(Nc3ccc(N4CCN(C)CC4)cc3)c3ncn(C(C)C)c3n2)C[C@H]1OC [Example 62]: 0.006
3. C=CC(=O)N[C@H]1CCN(c2nc(Nc3ccc(N4CCN(C)CC4)cc3)c3ncn(CC)c3n2)C1 [Example 35]: 0.011
4. C=CC(=O)NC1(C)CN(c2nc(Nc3cnn(C)c3)c3ncn(CC)c3n2)C1 [Example 56]: 0.108
5. C=CC(=O)NC1CN(c2nc(Nc3ccc(N4CCN(C)CC4)cc3)c3ncn(C(C)C)c3n2)C1 [Example 23]: 0.039
6. C=CC(=O)N1CCC(Oc2nc(Nc3cnn(C)c3)c3ncn(C(C)C)c3n2)C1 (stereo in doubt) [Example 59]: 0.162
7. C=CC(=O)N[C@H]1CCN(c2nc(Nc3cnn(CCN(C)C)c3)c3ncn(C(C)C)c3n2)C1 [Example 43]: 0.074
8. C=CC(=O)N[C@H]1CCN(c2nc(Nc3ccc(N4CCN(C)CC4)cc3)c3ncn(C4CCC4)c3n2)C1 [Example 15]: 0.055
9. C=CC(=O)N[C@@H]1CN(c2nc(Nc3cn(CC)nc3OC)c3ncn(C)c3n2)C[C@H]1F [Example 88]: 0.006
10. C=CC(=O)N[C@@H]1CN(c2nc(Nc3cn(C4CCN(C)C4)nc3OC)c3ncn(CC)c3n2)C[C@H]1F (stereo partly shown) [Example 75]: 0.011
11. C=CC(=O)N1C[C@@H](F)[C@H](Nc2nc(Nc3ccc(N4CCN(C)CC4)cc3)c3ncn(C)c3n2)C1 (relative stereo) [Example 20]: 0.011
12. C=CC(=O)N1C[C@@H](F)[C@H](Nc2nc(Nc3ccc(N4CCN(C)CC4)cc3)c3ncn(C(C)C)c3n2)C1 (relative stereo) [Example 19]: 0.01
13. C=CC(=O)N[C@H]1CN(c2nc(Nc3cnn(CCN(C)C)c3)c3ncn(C(C)C)c3n2)C[C@@H]1F [Example 67]: 0.008
14. C=CC(=O)N[C@@H]1CN(c2nc(Nc3ccc(N4CCN(C)CC4)cc3)c3ncn(C(C)(C)C)c3n2)C[C@H]1F [Example 52]: 0.742
15. C=CC(=O)N(C)C1CN(c2nc(Nc3cnn(C)c3)c3ncn(C(C)C)c3n2)C1 [Example 31]: 0.076
16. C=CC(=O)N[C@H]1C[C@H](Oc2nc(Nc3ccc(N4CCN(C)CC4)cc3)c3ncn(C(C)C)c3n2)C1 [Example 14]: 0.285
